Species on record: Oryctolagus cuniculus
test-description: Efficacy at M1 receptor measured by the ability to inhibit the electrically stimulated twitch of the rabbit vas deferens
Format: functional
Assignment: determine reported Max for the given molecules.
Answers are plain numbers, in %.

Record excerpt, results attached:
structure-as-smiles | Max [%]
CCCCOc1nccnc1C1=CCCN(C)C1 | 0
CCCCCCNc1nsnc1C1=CCCN(C)C1 | 65
COc1nccnc1C1=CCCN(C)C1 | 0

Next molecule, Max to be filled in.
# input Recorded Max of CCCOc1nsnc1C1=CCCN(C)C1 , please.
# output 25

====

target-or-test-system: Muscarinic acetylcholine receptor M1 (Rattus norvegicus)
Sequence (P08482 whole entry): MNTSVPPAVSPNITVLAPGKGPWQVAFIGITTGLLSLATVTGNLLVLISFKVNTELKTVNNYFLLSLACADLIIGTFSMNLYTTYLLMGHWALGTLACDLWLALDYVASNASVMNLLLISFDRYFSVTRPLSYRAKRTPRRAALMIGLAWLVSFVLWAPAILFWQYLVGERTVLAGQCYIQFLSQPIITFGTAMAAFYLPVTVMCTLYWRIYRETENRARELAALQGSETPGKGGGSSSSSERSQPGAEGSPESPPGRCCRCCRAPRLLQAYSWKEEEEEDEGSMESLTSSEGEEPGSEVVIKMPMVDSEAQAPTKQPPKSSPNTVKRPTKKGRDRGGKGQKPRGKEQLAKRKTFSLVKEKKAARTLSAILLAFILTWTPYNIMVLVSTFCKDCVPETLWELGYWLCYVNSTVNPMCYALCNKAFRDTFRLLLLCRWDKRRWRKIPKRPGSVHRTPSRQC
test-description: In vitro binding affinity against rat hippocampus M1 receptor using [3H]pirenzepine (Pz) as radioligand
Format: tissue-based
Task for the reader: assign each of the following molecules its reported IC50.
One number for each entry, in nM.

structure-as-smiles | target-or-test-system | units-of-measure | IC50
COc1nccnc1C1=CCCN(C)C1 | Muscarinic acetylcholine receptor M1 (Rattus norvegicus) | nM | 840
CCOc1nccnc1C1=CCCN(C)C1 | Muscarinic acetylcholine receptor M1 (Rattus norvegicus) | nM | 175
CCCCCSc1nccnc1C1=CCCN(C)C1 | Muscarinic acetylcholine receptor M1 (Rattus norvegicus) | nM | 10
CCCCCCSc1nccnc1C1=CCCN(C)C1 | Muscarinic acetylcholine receptor M1 (Rattus norvegicus) | nM | 28
CCCOc1nccnc1C1=CCCN(C)C1 | Muscarinic acetylcholine receptor M1 (Rattus norvegicus) | nM | 65

For each of the molecules below, note its IC50.
1. CCCCOc1nccnc1C1=CCCN(C)C1
2. CCCCCOc1nccnc1C1=CCCN(C)C1
3. CCCCCCOc1nccnc1C1=CCCN(C)C1

# output
1: 17; 2: 16; 3: 17

Hey, just so you know, these numbers are from ChEMBL document CHEMBL1126311.
